meta.source: patent US10538496B2

Tested on: Ba/F3 MPL W515L cells
ASSAY EXPLANATION: Cell proliferation assay (CCK8)
Assay type: cell-based
ASSAY SETUP: Mus musculus, BaF3; Ba/F3 MPLW515L, 48h; read-out: IC50, inhibition of proliferation
Method: This example describes inhibition of in vitro cell proliferation with exemplary HDAC11 inhibitors. The effects of selective HDAC11 inhibitors on cell proliferation were measured in cell lines containing the MPN-associated mutations MPL W515L (Ba/F3 MPL W515L) and JAK2 V617F (Ba/F3 JAK2 V617F, HEL 92.1.7, SET-2). […] CCK8 solution (Dojindo, Rockville, Md.) was added and absorbance at 450 nm was measured after 3 hours of incubation. Readings were normalized to dimethylsulfoxide (DMSO)-treated wells.
pIC50: −log10 of the molar value.
TEST READOUT: pIC50

{"COMPOUND": "O=C(NO)c1cccc2c1C[C@]1(CCN(Cc3ccc(Cl)c(C(F)(F)F)c3)C1=O)C2 [HDTK054]", "OBSERVED MEASUREMENT": "5.00 to 6.00"}
